Taken from patent US6348587B1.

# Tested on: HIV-1 (strain LAV)
# experimentalProtocol: Anti-HIV-1 activity in PHA-stimulated human PBM cells (virus quantitated by reverse transcriptase assay, day 6)
# Type: cell-based
# conditionLabel: HIV-1 in human PBM cells
# Procedure: The ability of nucleosides to inhibit HIV can be measured by various experimental techniques. […] The amount of virus produced is determined by measuring the virus-coded reverse transcriptase enzyme. […] The cells are exposed to the virus (about 2×10^5 dpm/ml, as determined by reverse transcriptase assay) and then placed in a CO2 incubator. […]
Items are presented alongside their recorded EC50.

input: Data request, read-out EC50, for O=c1[nH]cnc2c1ncn2[C@@H]1O[C@@H](CO)C=C1F [Compound 338]
output: > 100 µM

input: Field entry: Nc1ncnc2c1ncn2[C@H]1O[C@@H](CO)C=C1F [Compound 335]
output: 1.5 µM

input: Field entry: O=c1[nH]cnc2c1ncn2[C@H]1O[C@@H](CO)C=C1F [Compound 337]
output: > 100 µM

###

Items are presented alongside their recorded IC50.
# Tested on: PBM cells
# experimentalProtocol: Cytotoxicity in uninfected human PBM cells
# Assay type: cell-based

O=c1[nH]cnc2c1ncn2[C@H]1O[C@@H](CO)C=C1F [Compound 337] :: > 100 µM

input: Data request, read-out IC50, for O=c1ccn([C@H]2O[C@@H](CO)C=C2F)c(=O)[nH]1 [Compound 316]
output: > 100 µM

input: Field entry: Nc1ncnc2c1ncn2[C@H]1O[C@@H](CO)C=C1F [Compound 335]
output: > 100 µM

input: Field entry: Nc1ncnc2c1ncn2[C@@H]1O[C@@H](CO)C=C1F [Compound 336]
output: > 100 µM

input: Field entry: Nc1ccn([C@H]2O[C@@H](CO)C=C2F)c(=O)n1 [Compound 322]
output: > 100 µM

input: Field entry: O=c1[nH]cnc2c1ncn2[C@@H]1O[C@@H](CO)C=C1F [Compound 338]
output: > 100 µM

input: Field entry: Nc1ccn([C@@H]2O[C@@H](CO)C=C2F)c(=O)n1 [Compound 323]
output: > 100 µM

input: Field entry: Cc1cn([C@H]2O[C@@H](CO)C=C2F)c(=O)[nH]c1=O [Compound 318]
output: > 100 µM

###

# experimentalProtocol: Cytotoxicity in uninfected human PBM cells
# Type: cell-based
# conditionLabel: human, mitogen-stimulated uninfected human PBM cells; PMC Cells
endpoint: IC50 at 6 days

input: Data request, read-out IC50 at 6 days, for Cc1cn([C@H]2C[C@H](N=[N+]=[N-])[C@@H](CO)O2)c(=O)[nH]c1=O [AZT, 3′-azido-3′-deoxythymidine, reference compound]
output: > 100 µM

###

# System: HIV-1 (strain LAV)
# experimentalProtocol: Anti-HIV-1 activity in PHA-stimulated human PBM cells (virus quantitated by reverse transcriptase assay, day 6)
# Type: cell-based
# conditionLabel: HIV-1 in human PBM cells
endpoint: EC50 (µM)

1. Nc1ncnc2c1ncn2[C@@H]1O[C@@H](CO)C=C1F
2. Nc1ccn([C@H]2O[C@@H](CO)C=C2F)c(=O)n1
input: # return whichever of 1 and 2 has the smaller EC50 Label of pick, please.
output: 2

###

# Test system: HIV-1 (strain LAV)
# experimentalProtocol: Anti-HIV-1 activity in PHA-stimulated human PBM cells (virus quantitated by reverse transcriptase assay, day 6)
# Assay type: cell-based
# conditionLabel: HIV-1 in human PBM cells
endpoint: EC50

input: Data request, read-out EC50, for O=c1ccn([C@H]2O[C@@H](CO)C=C2F)c(=O)[nH]1
output: > 100 µM

input: Field entry: Cc1cn([C@H]2O[C@@H](CO)C=C2F)c(=O)[nH]c1=O
output: > 100 µM

input: Field entry: Nc1ccn([C@@H]2O[C@@H](CO)C=C2F)c(=O)n1
output: > 100 µM
